Each entry below lists one item and its recorded Mean No of serum samples >30% inhibition (30% CCP) with SCP (serum samples) value.
targetOrSystem: pre-existing anti-drug antibodies (ADA) present in human sera
testProtocol: pre-existing ADA ELISA, scFv coated, human sera unspiked vs spiked
assayMetric: Mean No of serum samples >30% inhibition (30% CCP) with SCP (serum samples)

binder	recordedMeasurement
PRO3308 (scFv 37-20-B03-sc09.1_(L12A, T101S, L144K, T146Q)) (scFv, PRO2230 variant; VH substitutions, AHo numbering; also called PRO2230 L12A-T101S-L144K-T146Q) scFv: DIQMTQSPASLSASVGDRVTITCQASQSIGTYLAWYQQKPGKPPKLLIYRAFILASGVPSRFSGSGSGTDFTLTISSLQPEDFATYYCQSNFYSDSTTIGPNAFGTGTKVTVLGGGGGSGGGGSGGGGSGGGGSEVQLVESGGGAVQPGGSLRLSCAASGFSFNSDYWIYWVRQAPGKGLEWIASIYGGSSGNTQYASWAQGRFTISRDNSKNTVYLQMNSLRAEDSAVYFCARGYVDYGGATDLWGQGTKVQVSS	2
PRO2915 (scFv 37-20-B03-sc09.1_(L12A, T101S, L144A, T146Q)) (scFv, PRO2230 variant; VH substitutions, AHo numbering; also called PRO2230 L12A-T101S-L144A-T146Q) scFv: DIQMTQSPASLSASVGDRVTITCQASQSIGTYLAWYQQKPGKPPKLLIYRAFILASGVPSRFSGSGSGTDFTLTISSLQPEDFATYYCQSNFYSDSTTIGPNAFGTGTKVTVLGGGGGSGGGGSGGGGSGGGGSEVQLVESGGGAVQPGGSLRLSCAASGFSFNSDYWIYWVRQAPGKGLEWIASIYGGSSGNTQYASWAQGRFTISRDNSKNTVYLQMNSLRAEDSAVYFCARGYVDYGGATDLWGQGTAVQVSS	2
PRO2987 (scFv 37-20-B03-sc09.1_(P15A)) (scFv, PRO2230 variant; VH substitution, AHo numbering; also called PRO2230 P15A) scFv: DIQMTQSPASLSASVGDRVTITCQASQSIGTYLAWYQQKPGKPPKLLIYRAFILASGVPSRFSGSGSGTDFTLTISSLQPEDFATYYCQSNFYSDSTTIGPNAFGTGTKVTVLGGGGGSGGGGSGGGGSGGGGSEVQLVESGGGLVQAGGSLRLSCAASGFSFNSDYWIYWVRQAPGKGLEWIASIYGGSSGNTQYASWAQGRFTISRDNSKNTVYLQMNSLRAEDTAVYFCARGYVDYGGATDLWGQGTLVTVSS	2
